- SYSTEM: purified human von Willebrand factor (vWF) (human, UniProt P04275 764-2813)
- ASSAY_METHOD_TEXT: cell-based or functional assay
OUTCOME_MEASURE: EC50 (nM), platelet agglutination assay
Quick reminder: number only, in nM, skip the unit.

Per the record, humanized NMC-4 variant H14, L10, IgG1 (antibody, V domains shown) VH: QVQLQESGPGLVKPSETLSLTCTVSGGSISDYGWDWIRQPPGKGLEWIGMIWGDGSTDYNPSLKSRVTISVDTSKNQFSLKLSSVTAADTAVYYCARDPADYGNYDYALDYWGQGTLVTVSS VL: DIQMTQSPSSLSASVGDRVTITCQASQDISNYLNWYQQKPGKAPKLLIYYTSSLHSGVPSRFSGSGSGTDFTLTISSLQPEDFATYYCQQYEKLPWTFGQGTKVEIK has EC50 (nM), platelet agglutination assay of 0.22

Per the record, humanized NMC-4 variant H12, L9 (IgG1) (antibody, V domains shown) VH: QVQLQESGPGLVKPSETLSLTCTVSGGSISDYGVDWIRQPPGKGLEWIGMIWGDGSTDYNSALKSRVTISVDTSKNQFSLKLSSVTAADTAVYYCARDPADYGNYDYALDYWGQGTLVTVSS VL: DIQMTQSPSSLSASVGDRVTITCSASQDINKYLNWYQQKPGKAPKLLIYYTSSLHSGVPSRFSGSGSGTDFTLTISSLQPEDFATYYCQQYEKLPWTFGQGTKVEIK has EC50 (nM), platelet agglutination assay of 0.29
